tested on: UO-31 renal; test: NCI-60 one-dose screen, 48 h; details: 10 µM unless noted
About 83,000 compounds went through this panel and 20% of them were active in at least one assay; those are over-represented in the sample as a whole. Active and inactive are the calls of the source. How the source made its calls: active means growth percent below 10; inactive means the rest.
Response enum: True for active, False for inactive

Recorded results for 6 compounds are shown here.
[
  {
    "compound": "O=C(N/N=C/c1cccnc1)c1ccccc1Nc1cccc(C(F)(F)F)c1",
    "study target": "UO-31 renal",
    "class name": "False"
  },
  {
    "compound": "C/C(=C(/c1ccccc1)c1ccc(OCC(O)CNCCN2CCOCC2)cc1)c1ccccc1 (stereo unspecified)",
    "study target": "UO-31 renal",
    "class name": "False"
  },
  {
    "compound": "Nc1c(Cl)cc([N+](=O)[O-])cc1Br",
    "study target": "UO-31 renal",
    "class name": "False"
  },
  {
    "compound": "O=S(=O)(c1ccccc1)N1CCCc2ccccc21",
    "study target": "UO-31 renal",
    "class name": "False"
  },
  {
    "compound": "CCCCCCCCCCN=C(N)N=C(N)N",
    "study target": "UO-31 renal",
    "class name": "False"
  },
  {
    "compound": "Cn1c(COC(=O)NCCc2ccccn2)nc2c(N3CCOCC3)nc(Cl)nc21",
    "study target": "UO-31 renal",
    "class name": "True"
  }
]

Name the outcome recorded for `O=C(O)c1cn(C2CC2)c2cc(N3CCN(C(=O)C[n+]4cccc5ccccc54)CC3)c(F)cc2c1=O` in the assay.
False

Name the outcome recorded for `COc1cc(NCCCN(CC(C)C)CC(C)C)c2ncccc2c1` in the assay.
False

Name the outcome recorded for `COc1ccc(Cc2nc3cc(OC)c(OC)cc3c(=O)[nH]2)cc1` in the assay.
False

Name the outcome recorded for Fc1ccc(C2CC(c3cccc(Nc4ccncc4)c3)=NN2c2ccc(Cl)cc2)cc1 (stereo unspecified) in the assay.
False

Name the outcome recorded for `CN1CCN(CCCOc2ccc3ncnc(Nc4ccc(Oc5cccc(C(F)(F)F)c5)c(Cl)c4)c3c2)CC1` in the assay.
False

Name the outcome recorded for COc1cc(C2CC(c3cccc(Nc4ccncc4)c3)=NN2c2ccc(Cl)cc2)cc(OC)c1OC (stereo unspecified) in the assay.
False

Name the outcome recorded for `CC1(C)[C@H](O)CC[C@]2(C)[C@@H]1CC[C@@]13C[C@@H](CC[C@H]12)[C@@](O)(CO)C3` in the assay.
False

Name the outcome recorded for `CNC(=O)Nc1ccc(-c2nc(N3CCOCC3)nc3c2cnn3C2CCOCC2)cc1` in the assay.
True

Name the outcome recorded for COc1ccc(C(O)c2cc3c(N)c(C(=O)Nc4ccc(Cl)cc4)sc3nc2C)cc1 (stereo unspecified) in the assay.
False

Name the outcome recorded for `COc1cc2ncnc(Nc3ccc(C(=O)/C=C/c4ccc(C(F)(F)F)cc4F)cc3)c2cc1OC` in the assay.
False

Name the outcome recorded for `COc1ccccc1/C=C1\Oc2cc(OCCCN3CCCC3)ccc2C1=O` in the assay.
False

Name the outcome recorded for `COc1ccc(/C=C(/c2ccccc2)[N+](=O)[O-])cc1` in the assay.
True

Name the outcome recorded for `COc1ccc(-c2nc(N=Nc3c(O)[nH]c4ccccc34)nc(N3CCOCC3)c2C#N)cc1` in the assay.
False

Name the outcome recorded for `COc1cc(OC)c(/C=C/C(=O)c2ccc(Nc3ncnc4ccccc34)cc2)c(OC)c1` in the assay.
True
